test system: PA-1; assay: Antiproliferative activity against human PA1 cells after 48 hrs by resazurin reduction test; assay type: functional, cell-based; details: PA-1, 48 h

>  <Smiles Str>
COc1cccc(-c2cnc(N)nc2-c2c[nH]c3ccccc23)c1

>  <IC50>
28 µM

$$$$
>  <Smiles Str>
Cn1cc(-c2nc(N)ncc2I)c2ccccc21

>  <IC50>
31 µM

$$$$
>  <Smiles Str>
COc1cccc(-c2cnc(N)nc2-c2cn(C)c3ccccc23)c1

>  <IC50>
34 µM

$$$$
>  <Smiles Str>
Cn1cc(-c2nc(N)ncc2-c2ccc(C(N)=O)cc2)c2ccccc21

>  <IC50>
> 50 µM

$$$$
>  <Smiles Str>
Cn1cc(-c2nc(N)ncc2-c2cccc(N)c2)c2ccccc21

>  <IC50>
> 50 µM

$$$$
>  <Smiles Str>
Cn1cc(-c2nc(N)ncc2-c2ccncc2)c2ccccc21

>  <IC50>
> 50 µM

$$$$
>  <Smiles Str>
Nc1cccc(-c2cnc(N)nc2-c2c[nH]c3ccccc23)c1

>  <IC50>
> 50 µM

$$$$
>  <Smiles Str>
Cn1cc(-c2nc(N)ncc2-c2cncnc2)c2ccccc21

>  <IC50>
> 50 µM

$$$$
>  <Smiles Str>
Nc1ncc(-c2ccc(OC(F)(F)F)cc2)c(-c2c[nH]c3ccccc23)n1

>  <IC50>
0.08 µM

$$$$
